ASSAY_SYSTEM: Mitogen-activated protein kinase kinase kinase 8 (Homo sapiens, UniProt P41279)
Sequence (P41279 whole entry): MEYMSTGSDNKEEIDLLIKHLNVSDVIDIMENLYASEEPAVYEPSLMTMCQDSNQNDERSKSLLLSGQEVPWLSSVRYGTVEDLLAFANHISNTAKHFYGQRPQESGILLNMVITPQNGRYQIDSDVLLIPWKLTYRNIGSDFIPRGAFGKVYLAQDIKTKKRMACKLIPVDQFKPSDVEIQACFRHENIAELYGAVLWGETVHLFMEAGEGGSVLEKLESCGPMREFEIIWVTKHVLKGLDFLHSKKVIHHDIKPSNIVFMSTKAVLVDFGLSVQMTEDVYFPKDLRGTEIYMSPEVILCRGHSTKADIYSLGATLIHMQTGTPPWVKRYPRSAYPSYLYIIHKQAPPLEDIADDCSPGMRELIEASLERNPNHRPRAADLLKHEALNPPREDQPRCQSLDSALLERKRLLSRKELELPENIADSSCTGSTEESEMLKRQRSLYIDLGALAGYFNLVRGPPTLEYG
MEASUREMENT_NOTES: Inhibition of COT by cell-based HTRF assay
Please assign false whenever IC50 is at or above 4 µM, and true whenever it is below.

Problem: For the molecule FC(F)(F)c1ccc(-c2ccc(Oc3cncc4sc(-c5nn[nH]n5)cc34)cc2)cc1 , is IC50 under 4 µM? true

Strictly below 4 µM in IC50? NC(=O)c1ccc(-c2ccc(Oc3cncc4sc(-c5nn[nH]n5)cc34)cc2)cc1 true

---

Documented pIC50 across a set of compounds
ASSAY_SYSTEM: Dual specificity mitogen-activated protein kinase kinase 1 (Homo sapiens, UniProt Q02750)
Sequence (Q02750 whole entry): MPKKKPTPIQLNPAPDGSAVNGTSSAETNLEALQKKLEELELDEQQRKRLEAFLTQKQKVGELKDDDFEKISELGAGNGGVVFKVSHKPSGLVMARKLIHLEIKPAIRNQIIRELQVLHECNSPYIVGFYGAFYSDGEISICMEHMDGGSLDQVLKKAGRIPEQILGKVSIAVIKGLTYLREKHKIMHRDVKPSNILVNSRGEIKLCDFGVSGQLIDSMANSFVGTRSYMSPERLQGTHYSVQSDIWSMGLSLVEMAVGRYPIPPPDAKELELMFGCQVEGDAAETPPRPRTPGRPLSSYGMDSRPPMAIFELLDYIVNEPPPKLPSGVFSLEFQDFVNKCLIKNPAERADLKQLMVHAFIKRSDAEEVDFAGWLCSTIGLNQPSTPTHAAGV
MEASUREMENT_NOTES: Inhibition of MEK1 by HTRF assay
FYI, pIC50 means -log10 of a concentration in mol per litre.

LINE_NOTATION: N#Cc1ccc(-c2ccc(Oc3cncc4sc(-c5nn[nH]n5)cc34)cc2)cc1
pIC50: 4.67
--
LINE_NOTATION: NC(=O)c1ccc(-c2ccc(Oc3cncc4sc(-c5nn[nH]n5)cc34)cc2)cc1
pIC50: 4.74

Record lookup: for Dual specificity mitogen-activated protein kinase kinase 1 (Homo sapiens, UniProt Q02750), what pIC50 belongs to Fc1ccc(-c2ccc(Oc3cncc4sc(-c5nn[nH]n5)cc34)cc2)cc1 ? 5.12

# returns recorded pIC50 (system: Dual specificity mitogen-activated protein kinase kinase 1 (Homo sapiens, UniProt Q02750)) for Clc1ccccc1-c1ccc(Oc2cncc3sc(-c4nn[nH]n4)cc23)cc1 5.82
